Cited source for all entries: the supplement of paper PMC10567573

B1: FCHO1 (parent)
chain: HLELTRKLQDLIKDVLRYGEEQLK

- Variants of: B1
- protocolDetails: protein stability index of a GFP-peptide fusion (GPS, HEK-293T) (PSI 1-6); higher = more stable;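 note: lentivirally expressed fusions sorted by FACS into six bins by GFP to DsRed ratio, PSI derived from sequencing read proportions per bin multiplied by bin number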
- protocolConditions: c terminus: a fixed tail appended
valueType: protein stability index

>>> print(df.to_string())
    variantdesignation  resultnumber
 0                K13V          2.29
 1                 L8N          3.85
 2                 Q9A          2.81
 3                 L8R          3.39
 4                D10C          3.93
 5                 L8T          2.39
 6                 T5A          1.89
 7                Q22L          2.14
 8                L11N          2.56
 9                I12D          4.11
10                 L8Q           3.3
11                D14S          3.79
12                 L4I          2.12
13                 H1L          1.55
14                D14N          2.76
15                K13H           1.8
16                I12Q           3.4
17                 R6A          1.45
18                G19F          2.83
19                 E3S          3.71
20                E21T           2.8
21                D10G          3.66
22                G19D          2.09
23                L16N          2.82
24                 L2D          2.92
25                L16Q          2.54
26                D10V          4.56
27                R17N          2.64
28                 L4H          3.01
29                L16S          2.09
30                 R6G          2.11
31                 K7F          2.12
32                 T5W          2.05
33                 E3I          2.88
34                K24C          1.63
35                L23R          2.44
36                 H1G          2.03
37                 R6S           2.4
38                 L4E          1.46
39                I12K          3.17
40                 T5F          2.34
41                 R6I          1.95
42                 K7C          1.55
43                 L8A          1.94
44                R17D          1.73
45                I12H          3.05
46                L23K             2
47                 T5K          5.01
48                R17A          1.97
49                Q22D          2.43
50                 E3P          2.72
51                L16E          3.18
52                E20K           1.7
53                D14V          3.29
54                I12T          2.31
55                 K7A          2.33
56                 L8M          1.45
57                 E3R          2.74
58                Q22V          2.32
59                 L8Y          1.64
60                G19N          2.18
61                 Q9D          1.24
62                D14K          4.59
63                Y18H          2.12
64                 H1E          2.81
65                 K7I          2.06
66                Y18G          1.83
67                 H1I          1.74
68                L16T          2.25
69                Y18C          1.61
70                D10L          1.44
71                Y18L          2.53
72                Y18E          1.77
73                 K7Q          2.28
74                 L4Y          2.41
75                R17E          1.76
